These data points were gathered from paper PMC7571065.

molecular target: recombinant MAO-B (Homo sapiens); construct: purchased Sigma-Aldrich (Steinheim, Germany); assay: In vitro fluorometric MAO-B inhibition assay (Ampliflu Red, tyramine); format: biochemical; conditions: 10^−4 M
Sequence (P27338 whole entry): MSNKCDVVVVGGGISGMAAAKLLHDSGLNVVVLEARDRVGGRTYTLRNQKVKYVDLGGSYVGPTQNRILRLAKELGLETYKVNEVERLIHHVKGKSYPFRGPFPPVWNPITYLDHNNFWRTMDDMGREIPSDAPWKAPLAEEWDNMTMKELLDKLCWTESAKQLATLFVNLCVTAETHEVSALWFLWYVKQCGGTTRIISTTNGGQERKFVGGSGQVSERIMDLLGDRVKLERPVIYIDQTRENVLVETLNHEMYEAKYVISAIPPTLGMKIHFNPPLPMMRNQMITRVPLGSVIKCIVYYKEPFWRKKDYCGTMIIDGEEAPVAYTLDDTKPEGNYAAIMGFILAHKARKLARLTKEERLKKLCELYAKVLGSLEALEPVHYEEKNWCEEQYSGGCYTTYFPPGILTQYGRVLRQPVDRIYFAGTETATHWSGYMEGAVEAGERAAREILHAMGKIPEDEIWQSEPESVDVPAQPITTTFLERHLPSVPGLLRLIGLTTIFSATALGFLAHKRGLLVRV
Assay Readout: inhibition at 100 µM (%)

COc1ccc(-c2csc(NN=Cc3ccc(N4CCN(C)CC4)cc3)n2)cc1 ... 21.5
CN1CCN(c2ccc(C=NNc3nc(-c4ccc(C#N)cc4)cs3)cc2)CC1 ... 26
CN1CCN(c2ccc(C=NNc3nc(-c4ccccc4)cs3)cc2)CC1 ... 25
CN1CCN(c2ccc(C=NNc3nc(-c4ccc(F)cc4F)cs3)cc2)CC1 ... 23.2
CN1CCN(c2ccc(C=NNc3nc(-c4ccc(Br)cc4)cs3)cc2)CC1 ... 22.1
CN1CCN(c2ccc(C=NNc3nc(-c4ccc(-c5ccccc5)cc4)cs3)cc2)CC1 ... 21.5
Cc1ccc(-c2csc(NN=Cc3ccc(N4CCN(C)CC4)cc3)n2)cc1 ... 27.6
CN1CCN(c2ccc(C=NNc3nc(-c4ccc(Cl)cc4)cs3)cc2)CC1 ... 24
CN1CCN(c2ccc(C=NNc3nc(-c4ccc([N+](=O)[O-])cc4)cs3)cc2)CC1 ... 28.2
CN1CCN(c2ccc(C=NNc3nc(-c4ccc(F)cc4)cs3)cc2)CC1 ... 24.7
Cc1ccc(-c2csc(NN=Cc3ccc(N4CCN(C)CC4)cc3)n2)c(C)c1 ... 20
